ASSAY OVERVIEW: chemical genetic growth profiling, strain panel (AID 1159580);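 note: tested at 20 µM; growth read once vehicle control cultures reached saturation at 30 °C; 1 = growth at the plate median or of vehicle wells; lower values mean less growth of the strain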
CONDITION PARAMETERS: S. cerevisiae deletion strains, growth OD, locus YDR054C, strain cdc34
In all, about 5,500 compounds went through this assay and about 2,000 (36%) were called active. Inconclusive results (about 18%) are left out. Cut-off read from the data, not from the text of the source: active = normalized growth mostly below about 0.91 (no sharp cut-off); inconclusive = no clear call, values can overlap the other calls; inactive = mostly above about 0.92. This is one part of the list.
Your response should consist of one outcome taken from active, inactive

As a guide, the following entries are already answered.
>  <STRUCTURE STRING>
S=C(Nc1cc(-c2cccs2)[nH]n1)Nc1ccccc1Cl

>  <LABEL>
inactive

$$$$
>  <STRUCTURE STRING>
Cc1c(C(=O)N2CCCCC2)cc(-c2ccccc2)n1-c1ccccc1

>  <LABEL>
inactive

$$$$
>  <STRUCTURE STRING>
NC(N)=Nc1nc(-c2cc(Cl)sc2Cl)cs1

>  <LABEL>
inactive

$$$$

Exercise: Query: recorded result category for C=CC(=O)N1CCc2cc([N+](=O)[O-])ccc21 in this test
Key: active

Exercise: Query: recorded result category for N#Cc1c(Cl)c(Cl)c(Cl)c(Cl)c1C#N in this test
Key: active

Exercise: Query: recorded result category for Cc1c(Cl)cccc1NC(=S)N1CCCN(c2ccc(C(F)(F)F)cc2[N+](=O)[O-])CC1 in this test
Key: inactive

Exercise: Query: recorded result category for N#C/C(=N/Nc1ccccc1Cl)S(=O)(=O)c1ccc(Cl)cc1 in this test
Key: inactive

Exercise: Query: recorded result category for O=C(Oc1cc(Cl)c(Cl)cc1Cl)C1c2ccccc2Oc2ccccc21 in this test
Key: inactive

Exercise: Query: recorded result category for C/C(=N/NC(N)=S)c1ccccn1 in this test
Key: inactive

Exercise: Query: recorded result category for O=[N+]([O-])c1cc(C(F)(F)F)ccc1-n1ccc(-c2cccs2)n1 in this test
Key: inactive

Exercise: Query: recorded result category for O=C(NCc1ccco1)c1ccc(Oc2cc(Cl)cc(Cl)c2)o1 in this test
Key: inactive

Exercise: Query: recorded result category for O=C(C=C(O)c1ccc(Br)cc1)C(=O)Nc1ccccc1 in this test
Key: active

Exercise: Query: recorded result category for Cc1c(Cl)cccc1NC(=S)N1CCCN(c2nc3ccc(Cl)cc3s2)CC1 in this test
Key: inactive

Exercise: Query: recorded result category for O=C(Nc1c(Br)c(C2CC2)nn1-c1ccccc1)C(Cl)(Cl)Cl in this test
Key: inactive

Exercise: Query: recorded result category for Cn1cncc1S(=O)(=O)/C(C#N)=C/c1ccccc1Sc1ccc(Cl)cc1 in this test
Key: inactive

Exercise: Query: recorded result category for CC1=CC(=O)C(CCOCCC2=CC(=O)C(C)=CC2=O)=CC1=O in this test
Key: inactive

* * *

ASSAY OVERVIEW: chemical genetic growth profiling, strain panel (AID 1159580);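 note: tested at 20 µM; growth read once vehicle control cultures reached saturation at 30 °C; 1 = growth at the plate median or of vehicle wells; lower values mean less growth of the strain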
CONDITION PARAMETERS: S. cerevisiae deletion strains, growth OD, locus YJR016C, strain ILV3, stronger effect = lower value
Hit rate of the full screen: of about 5,500 compounds, about 2,000 (36%) were called active. About 18% were inconclusive and are not listed. Some of the results follow.
Parameter: normalized growth. Scope: all listed entries.
Would you mind answering with just the numeric figure?

>  <STRUCTURE STRING>
Cc1c(C(=O)N2CCCCC2)cc(-c2ccccc2)n1-c1ccccc1

>  <READING>
0.975

$$$$
>  <STRUCTURE STRING>
O=C(Oc1cc(Cl)c(Cl)cc1Cl)C1c2ccccc2Oc2ccccc21

>  <READING>
0.945

$$$$
>  <STRUCTURE STRING>
C=CC(=O)N1CCc2cc([N+](=O)[O-])ccc21

>  <READING>
0.742

$$$$

API: the following record is the query input.
Exercise: Entry O=C(Nc1c(Br)c(C2CC2)nn1-c1ccccc1)C(Cl)(Cl)Cl needs its normalized growth filled in; supply it.
Key: 0.929
